System: HeLa Kyoto;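 note: HeLa Kyoto cells synchronized by double thymidine or nocodazole block, proteins quantified by TMT10plex mass spectrometry, three independent biological replicates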
Test Description: melting temperature (median over replicates), in situ; higher = more thermally stable
Test Context: cell cycle stage: mitosis

{"columns": ["Chain", "melting temperature [°C]"],
 "data": [
  ["MVGREKELSIHFVPGSCRLVEEEVNIPNRRVLVTGATGLLGRAVHKEFQQNNWHAVGCGFRRARPKFEQVNLLDSNAVHHIIHDFQPHVIVHCAAERRPDVVENQPDAASQLNVDASGNLAKEAAAVGAFLIYISSDYVFDGTNPPYREEDIPAPLNLYGKTKLDGEKAVLENNLGAAVLRIPILYGEVEKLEESAVTVMFDKVQFSNKSANMDHWQQRFPTHVKDVATVCRQLAEKRMLDPSIKGTFHWSGNEQMTKYEMACAIADAFNLPSSHLRPITDSPVLGAQRPRNAQLDCSKLETLGIGQRTPFRIGIKESLWPFLIDKRWRQTVFH [MAT2B]", 56.3]
]}
